Here, each record is paired with measured growth data.
- Tested on: OVCAR-5 ovarian
- experiment_notes: NCI-60 one-dose screen, 48 h (100 = growth as untreated, 0 = no growth, -100 = all killed)
- condition_set: 10 µM unless noted
The panel holds about 83,000 compounds, 20% with a hit somewhere; the sample as a whole holds those more often.
readout_type: growth (%)

INSERT INTO measurements (compound, measurement_target, assay_result) VALUES
  ('CCN(CC)CCCC(C)Nc1cnc(C(=O)Nc2cccc3ccc(OC)nc23)cn1 (stereo not given)', 'OVCAR-5 ovarian', 91.3),
  ('CC1CCN(Cc2ccc(NC(=O)c3cc4ccc5cccnc5c4[nH]3)cc2)CC1', 'OVCAR-5 ovarian', 51.8),
  ('CCc1oc2ccccc2c1C(=O)c1cc(I)c(O)c(I)c1', 'OVCAR-5 ovarian', 86.5),
  ('CC(=O)[C@@]1(O)[C@H](C)C[C@H]2[C@@H]3C=C(C)C4=Cc5c(cnn5-c5ccccc5)C[C@]4(C)[C@H]3[C@@H](O)C[C@@]21C', 'OVCAR-5 ovarian', 40.6),
  ('CN(C)c1ccc(C(c2ccccc2)c2ccc(N(C)C)cc2)cc1', 'OVCAR-5 ovarian', 94),
  ('Oc1ccc(Cl)cc1-c1cc(-c2ccccc2Cl)[nH]n1', 'OVCAR-5 ovarian', 87.9),
  ('CC(=O)OC1Oc2ccccc2-c2oc3nc(=N)n(C)c-3cc21 (stereo not given)', 'OVCAR-5 ovarian', 107),
  ('COc1ccc(/C(=C\c2cc(OC)c(OC)c(OC)c2)C(=O)N2CCN(c3ccccc3)CC2)cc1O', 'OVCAR-5 ovarian', 101),
  ('Cn1c(=O)c2c3c(oc2c2ccccc21)C(=O)c1ccccc1C3=O', 'OVCAR-5 ovarian', 120),
  ('CC(COC(=O)c1ccccc1)N1CC2CCC(C1)O2 (stereo not given)', 'OVCAR-5 ovarian', 101),
  ('CC(C)(C)c1ccc(Cn2c(-c3nonc3N)nc3ccccc32)cc1', 'OVCAR-5 ovarian', 99.2),
  ('CCCCNCCC(O)c1cc2ccc(C(F)(F)F)cc2c2cc(C(F)(F)F)ccc12 (stereo not given)', 'OVCAR-5 ovarian', -79.9),
  ('O=NN(CC(=O)NNc1ccccc1)CC(=O)NNc1ccccc1', 'OVCAR-5 ovarian', 74.5),
  ('O=C(Cc1ccc(Nc2ccnc(C(F)(F)F)c2)cc1)N/N=C/c1ccccc1O', 'OVCAR-5 ovarian', 28.1),
  ('C=CCn1c(SCC(=O)Nc2ccc(C(=O)/C=C/c3ccccc3)cc2)nnc1-c1ccc(OC)c(OC)c1', 'OVCAR-5 ovarian', 108);
